test system: LAPC4 prostate cancer cells, which express the AKT1 E17K allele; experiment: Antiproliferative effects in LAPC4 cells (CellTiter Glo, 72 h); format: cell-based; conditions: Homo sapiens, LAPC4, 72 h, read-out: LAPC4 proliferation IC50: GeoMean IC50
Quantity kind: IC50

Query the reported IC50 for LAPC4 prostate cancer cells, which express the AKT1 E17K allele; item: Cc1cc(-n2ccc(F)n2)nc2c1nc(-c1cccnc1N)n2-c1ccc2c(c1)CC[C@@H]2NC(=O)c1ccc(O)c(C=O)c1 [Example 181]
0.1 to 2 µM

Lab note: need IC50 for Cn1ccnc1Nc1ccc(C(=O)N[C@H]2CCc3cc(-n4c(-c5cccnc5N)nc5ccc(-n6cccn6)nc54)ccc32)cc1C=O [Example 141] on LAPC4 prostate cancer cells, which express the AKT1 E17K allele, anyone have it?
0.1 to 2 µM

Record lookup: for LAPC4 prostate cancer cells, which express the AKT1 E17K allele, what IC50 belongs to CS(=O)(=O)Nc1cc(-n2cccn2)nc2c1nc(-c1cccnc1N)n2-c1ccc2c(c1)CC[C@@H]2NC(=O)c1ccc(O)c(C=O)c1 [Example 232] ?
≥ 2 µM

Lookup: IC50 / LAPC4 prostate cancer cells, which express the AKT1 E17K allele / CN(C)C(=O)Nc1ccc(C(=O)N[C@H]2CCc3cc(-n4c(-c5cccnc5N)nc5ccc(-n6cccn6)nc54)ccc32)cc1C=O [Example 104]
< 0.01 µM

Under LAPC4 prostate cancer cells, which express the AKT1 E17K allele: IC50 value of COc1cc(-n2cccn2)nc2c1nc(-c1cccnc1N)n2-c1ccc2c(c1)CC[C@@H]2NC(=O)c1cc(C=O)c(O)c(F)c1F [Example 222] ?
0.01 to 0.1 µM

Can you look up IC50 on LAPC4 prostate cancer cells, which express the AKT1 E17K allele for N#Cc1ccn(-c2ccc3nc(-c4cccnc4N)n(-c4ccc5c(c4)CC[C@@H]5NC(=O)c4ccc(O)c(C=O)c4)c3n2)n1 [Example 108] ?
0.1 to 2 µM

What IC50 appears in the records for this compound with LAPC4 prostate cancer cells, which express the AKT1 E17K allele? CN(C)c1cc(C(=O)N[C@H]2CCc3cc(-n4c(-c5cccnc5N)nc5ccc(-n6cccn6)nc54)ccc32)cc(C=O)c1O [Example 228]
0.1 to 2 µM

Record lookup: for LAPC4 prostate cancer cells, which express the AKT1 E17K allele, what IC50 belongs to Nc1ncccc1-c1nc2ccc(-c3cncnc3)nc2n1-c1ccc2c(c1)CC[C@@H]2NC(=O)c1ccc(O)c(C=O)c1 [Example 58] ?
0.01 to 0.1 µM

Enter reported IC50 observed with LAPC4 prostate cancer cells, which express the AKT1 E17K allele for COc1cc(C(=O)N[C@H]2CCc3cc(-n4c(-c5cccnc5N)nc5ccc(-n6cccn6)nc54)ccc32)cc(C=O)c1O [Example 182]
0.1 to 2 µM

For LAPC4 prostate cancer cells, which express the AKT1 E17K allele, provide IC50 of Cc1noc(-c2ccc3nc(-c4cccnc4N)n(-c4ccc5c(c4)CC[C@@H]5NC(=O)c4ccc(O)c(C=O)c4)c3n2)n1 [Example 179] please.
0.1 to 2 µM

Recall the recorded IC50 for COc1cnn(-c2ccc3nc(-c4cccnc4N)n(-c4ccc5c(c4)CC[C@@H]5NC(=O)c4ccc(O)c(C=O)c4)c3n2)c1 [Example 83] with LAPC4 prostate cancer cells, which express the AKT1 E17K allele and state it.
0.1 to 2 µM

# get_value(readout= IC50, system= LAPC4 prostate cancer cells, which express the AKT1 E17K allele) for Nc1ncccc1-c1nc2ccc(-n3cccn3)nc2n1-c1ccc2c(c1)CC[C@@H]2NC(=O)c1cc(C=O)c(O)c2nccn12 [Example 169]
0.1 to 2 µM

Notebook entry, LAPC4 prostate cancer cells, which express the AKT1 E17K allele assay: IC50 of C#Cc1cc(-n2cccn2)nc2c1nc(-c1cccnc1N)n2-c1ccc2c(c1)CC[C@@H]2NC(=O)c1ccc(O)c(C=O)c1 [Example 201] = ?
0.1 to 2 µM

All figures here come from patent US20260053834A1.
